Test: Determination of plasma half life, human plasma
Format: in vitro ADME
Settings: 37° C. (Table 1), read-out: Human Mean t1/2
QUANTITY_NAME: half-life at 1 μM (h)

P = CCCCC(=O)O[C@H](CC(=O)OCC)C[N+](C)(C)C
Q = CCOC(=O)C[C@H](C[N+](C)(C)C)OC(=O)CC
Of the two listed items, which has the higher half-life at 1 μM? First: P Second: Q Please respond with the label that marks your chosen entry.
Q
(Q: 9.16 h, P: 0.927 h)
